Listing of entries alongside the reported Ki.
target: human CCK1-receptor (Homo sapiens); test: CCK1 radioligand binding, displacement of [3H]-L-364,718 in CHO-K1 cells; conditions: displacement of [3H]-L-364,718, CHO-K1 cells with cloned human CCK1 receptor; S.E.M's on pKi are ±≦0.1
Sequence (P32238 whole entry): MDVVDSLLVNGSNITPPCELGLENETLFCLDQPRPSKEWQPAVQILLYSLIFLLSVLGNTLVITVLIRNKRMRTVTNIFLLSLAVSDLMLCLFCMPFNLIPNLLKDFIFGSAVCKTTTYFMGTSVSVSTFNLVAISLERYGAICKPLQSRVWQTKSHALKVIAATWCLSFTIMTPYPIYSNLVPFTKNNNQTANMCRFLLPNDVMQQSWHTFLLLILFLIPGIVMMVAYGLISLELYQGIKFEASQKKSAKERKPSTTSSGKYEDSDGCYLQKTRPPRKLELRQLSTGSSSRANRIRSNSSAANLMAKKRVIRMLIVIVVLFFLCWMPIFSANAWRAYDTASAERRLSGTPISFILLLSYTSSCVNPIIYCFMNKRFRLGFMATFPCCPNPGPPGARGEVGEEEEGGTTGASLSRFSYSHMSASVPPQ
Write the value in nM as a bare number.

Example cases with answers are listed next.
CNc1cccc(NC(=O)CN2C(=O)N(CC(=O)C(C)(C)C)c3ccccc3N(C3CCCCC3)C2=O)c1 [Example 13] : 2510
CC(C)(C)C(=O)CN1C(=O)N(CC(=O)Nc2cccc(SCC(=O)O)c2)C(=O)N(C2CCCCCC2)c2ccccc21 [Example 11] : 251
CC(C)(C)C(=O)CN1C(=O)N(CC(=O)Nc2cccc(CCC(=O)O)c2)C(=O)N(C2CCCCC2)c2ccccc21 [Example 14] : 2510
CC(C)(C)C(=O)CN1C(=O)N(CC(=O)Nc2cccc(-c3nc(=O)o[nH]3)c2)C(=O)N(C2CCCCCC2)c2ccccc21 [Example 12] : 126
Cc1nc(-c2cccc(NC(=O)CN3C(=O)N(CC(=O)C(C)(C)C)c4ccccc4N(C4CCCCC4)C3=O)c2)cs1 [Example 15] : 1580
CC(C)(C)C(=O)CN1C(=O)N(CC(=O)Nc2cccc(SCC(=O)OCc3ccccc3)c2)C(=O)N(C2CCCCCC2)c2ccccc21 [Example 10] : 100
CN(c1cccc(NC(=O)CN2C(=O)N(CC(=O)C(C)(C)C)c3ccccc3N(C3CCCCC3)C2=O)c1)c1nn[nH]n1 [Example 16] : 2000
CC(C)(C)C(=O)CN1C(=O)N(CC(=O)Nc2cccc(CC(=O)O)c2)C(=O)N(C2CCCCCC2)c2ccccc21 [Example 8] : 3980

Next molecule, Ki to be filled in.
Query :: State the recorded Ki for this entry: O=C(CN1C(=O)N(CC(=O)N2CCCC2)c2ccccc2N(c2ccccc2)C1=O)Nc1ccc(F)cc1 [Example 2]
Result :: 7940

---

target: gastrin (CCK2) receptor (Rattus norvegicus, UniProt P30553); construct: The oesophagus of immature rats (33-50 g, ca. 21 days old) was ligated; from tissue; host or cells: isolated whole stomach of immature rats; experiment: gastrin (CCK2) antagonist activity in an immature rat stomach assay (pentagastrin-stimulated acid secretion); conditions: isolated immature rat stomach, 60 min incubation, cumulative pentagastrin dose-response curves; read-out: CCK2 pKB ± sem (converted)
Sequence (P30553 whole entry): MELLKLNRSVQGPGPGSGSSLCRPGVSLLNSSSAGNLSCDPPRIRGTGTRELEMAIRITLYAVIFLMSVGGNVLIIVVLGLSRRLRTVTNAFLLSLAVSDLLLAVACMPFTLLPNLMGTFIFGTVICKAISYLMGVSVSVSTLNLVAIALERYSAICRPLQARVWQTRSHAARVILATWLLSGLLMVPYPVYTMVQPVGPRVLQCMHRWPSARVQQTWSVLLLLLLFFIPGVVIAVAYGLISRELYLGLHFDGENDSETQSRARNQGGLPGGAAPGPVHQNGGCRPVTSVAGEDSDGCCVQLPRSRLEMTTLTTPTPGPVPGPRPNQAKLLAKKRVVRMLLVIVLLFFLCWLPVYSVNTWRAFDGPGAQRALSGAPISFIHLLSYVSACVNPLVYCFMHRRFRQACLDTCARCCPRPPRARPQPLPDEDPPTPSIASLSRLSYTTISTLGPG
Listing of entries alongside the reported Kb.
Write the value in nM as a bare number.

Example cases with answers are listed next.
CC(C)(C)C(=O)CN1C(=O)N(CC(=O)Nc2cccc(-c3nc(=O)o[nH]3)c2)C(=O)N(C2CCCCCC2)c2ccccc21 [Example 12] : 3.24
CC(C)(C)C(=O)CN1C(=O)N(CC(=O)Nc2cccc(CCC(=O)O)c2)C(=O)N(C2CCCCC2)c2ccccc21 [Example 14] : 26.3
O=C(CN1C(=O)N(CC(=O)N2CCCC2)c2ccccc2N(c2ccccc2)C1=O)Nc1cccc(C(=O)O)c1 [Example 3] : 708
CC(C)(C)C(=O)CN1C(=O)N(CC(=O)Nc2cccc(SCC(=O)O)c2)C(=O)N(C2CCCCCC2)c2ccccc21 [Example 11] : 4.47
O=C(CN1C(=O)N(CC(=O)N2CCCC2)c2ccccc2N(c2ccccc2)C1=O)Nc1ccc(F)cc1 [Example 2] : 2240
CC(C)(C)C(=O)CN1C(=O)N(CC(=O)Nc2cccc(SCC(=O)OCc3ccccc3)c2)C(=O)N(C2CCCCCC2)c2ccccc21 [Example 10] : 6.76
CC(C)(C)C(=O)CN1C(=O)N(CCCC(=O)Nc2cccc(-c3nc(=O)o[nH]3)c2)C(=O)N(C2CCCCC2)c2ccccc21 [Example 19] : 87.1
CC(C)(C)C(=O)CN1C(=O)N(CC(=O)Nc2cccc(CC(=O)O)c2)C(=O)N(C2CCCCCC2)c2ccccc21 [Example 8] : 43.7

Next compound, Kb to be filled in.
Query :: State the recorded Kb for this entry: CNc1cccc(NC(=O)CN2C(=O)N(CC(=O)C(C)(C)C)c3ccccc3N(C3CCCCC3)C2=O)c1 [Example 13]
Result :: 19.5
